measure: melting point (°C)

[[record]]
compound = "CC(C)Cc1ccc(C(=O)N[C@H]2CC[C@H](CCN3CCC(c4coc5ccccc45)CC3)CC2)cc1 [Example 80]"
measured_result = 190

[[record]]
compound = "O=C(N[C@H]1CC[C@H](CCN2CCC(c3coc4ccccc34)CC2)CC1)c1ccc(C2CC2)cc1 [Example 84]"
measured_result = 199

[[record]]
compound = "CO[C@H]1CC[C@H](CC(=O)N[C@H]2CC[C@H](CCN3CCC(c4coc5ccccc45)CC3)CC2)CC1 [Example 72]"
measured_result = 179

[[record]]
compound = "CCCC(=O)N[C@H]1CC[C@H](CCN2CCC(c3coc4ccccc34)CC2)CC1 [Example 33]"
measured_result = 155

[[record]]
compound = "COC(CC(=O)N[C@H]1CC[C@H](CCN2CCC(c3coc4ccccc34)CC2)CC1)OC [Example 52]"
measured_result = 148

[[record]]
compound = "O=C(N[C@H]1CC[C@H](CCN2CCC(c3coc4ccccc34)CC2)CC1)c1ccc2ncccc2c1 [Example 73]"
measured_result = 192

[[record]]
compound = "O=C(N[C@H]1CC[C@H](CCN2CCC(c3coc4ccccc34)CC2)CC1)c1ccc(Cl)cc1 [Example 49]"
measured_result = 203

[[record]]
compound = "CCCCC(=O)N[C@H]1CC[C@H](CCN2CCC(c3coc4ccccc34)CC2)CC1 [Example 57]"
measured_result = 167

